# test target: Gal(b1-3)GlcNAc(b1-3)Gal(b1-4)GlcNAc(b1-2)[Gal(b1-3)GlcNAc(b1-3)Gal(b1-4)GlcNAc(b1-6)]Man(a1-6)[Gal(b1-3)GlcNAc(b1-3)Gal(b1-4)GlcNAc(b1-2)Man(a1-3)]Man(b1-4)GlcNAc(b1-4)[Fuc(a1-6)]GlcNAc
# protocol notes: glycan array binding signal (z-score within array); higher = stronger binding
# stated conditions: glycan notation: IUPAC condensed, linker removed
About 410 targets per protein were measured; listed, in parts, are those with the strongest signals and a random draw of the rest.
parameter measured: glycan array binding signal (z-score)

Record FimA-N2 (Actinomyces oris) (protein) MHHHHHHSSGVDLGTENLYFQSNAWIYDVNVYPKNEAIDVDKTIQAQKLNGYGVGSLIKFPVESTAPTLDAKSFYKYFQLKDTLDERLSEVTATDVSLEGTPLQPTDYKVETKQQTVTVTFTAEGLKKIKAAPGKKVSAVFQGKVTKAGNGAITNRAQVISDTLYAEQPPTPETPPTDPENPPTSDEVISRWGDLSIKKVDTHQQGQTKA , field glycan array binding signal (z-score): 3.71
